assay.target: Ba/F3-EGFR-D770_N771insSVD cells (Homo sapiens, UniProt P00533, DUP768-770, cells depend on it)
Sequence (P00533 with tags, fused parts or gaps DUP768-770): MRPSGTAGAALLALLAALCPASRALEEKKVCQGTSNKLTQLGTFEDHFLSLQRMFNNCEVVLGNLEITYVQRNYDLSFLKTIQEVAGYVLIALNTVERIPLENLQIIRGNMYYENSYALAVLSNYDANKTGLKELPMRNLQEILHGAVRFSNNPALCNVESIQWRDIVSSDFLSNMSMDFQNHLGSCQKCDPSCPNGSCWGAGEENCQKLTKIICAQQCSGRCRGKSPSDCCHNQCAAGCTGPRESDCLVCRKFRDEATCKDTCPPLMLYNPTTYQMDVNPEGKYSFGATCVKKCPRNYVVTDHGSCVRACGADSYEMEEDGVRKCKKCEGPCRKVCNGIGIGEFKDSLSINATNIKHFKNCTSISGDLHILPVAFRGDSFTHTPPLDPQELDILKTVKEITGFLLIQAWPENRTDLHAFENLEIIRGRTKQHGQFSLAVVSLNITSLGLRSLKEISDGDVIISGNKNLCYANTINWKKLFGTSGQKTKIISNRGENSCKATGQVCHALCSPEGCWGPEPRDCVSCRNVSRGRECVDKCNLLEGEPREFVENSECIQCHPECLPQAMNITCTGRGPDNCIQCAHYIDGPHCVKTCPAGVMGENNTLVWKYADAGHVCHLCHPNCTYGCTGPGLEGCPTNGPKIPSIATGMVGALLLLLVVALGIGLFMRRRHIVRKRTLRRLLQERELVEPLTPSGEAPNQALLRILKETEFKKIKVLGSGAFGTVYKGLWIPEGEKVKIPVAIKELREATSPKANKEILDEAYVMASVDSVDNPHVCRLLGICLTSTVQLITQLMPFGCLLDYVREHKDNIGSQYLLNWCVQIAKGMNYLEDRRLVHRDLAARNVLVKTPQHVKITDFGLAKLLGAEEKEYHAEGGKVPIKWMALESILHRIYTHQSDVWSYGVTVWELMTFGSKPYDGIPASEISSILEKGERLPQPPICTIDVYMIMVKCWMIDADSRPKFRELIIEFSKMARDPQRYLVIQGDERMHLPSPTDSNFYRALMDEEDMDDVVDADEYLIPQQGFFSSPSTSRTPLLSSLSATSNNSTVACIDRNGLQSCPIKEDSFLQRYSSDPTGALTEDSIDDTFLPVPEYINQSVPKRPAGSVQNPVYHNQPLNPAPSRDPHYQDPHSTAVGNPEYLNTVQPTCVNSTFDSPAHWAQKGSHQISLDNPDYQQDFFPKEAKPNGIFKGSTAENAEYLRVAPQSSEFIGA
protocol.text: Ba/F3 cell survival assay, EGFR D770_N771insSVD
Format: cell-based
run.parameters: Cell Titer-Glo, 48 h, without IL-3; Table 4; read-out: BA/F3 (insSVD) IC50
Note to self: use t only for GI50 readings below 20 nM; a reading exactly at 20 nM still gets f.

molecule: COc1c(Cl)cccc1Nc1c(-c2ccncc2OC[C@@H]2COCCN2C)[nH]c2c1C(=O)NCC2CCF (single isomer, unassigned) [Example 89]
class.label: t

molecule: COc1c(Cl)cccc1Nc1c(-c2ccncc2OC[C@@H]2CCCO2)[nH]c2c1C(=O)NCC2CCC(F)(F)F (single isomer, unassigned) [Example 98]
class.label: t

molecule: Cc1c(Cl)cccc1Nc1c(-c2ccncc2OC[C@@H]2CCCO2)[nH]c2c1C(=O)NCC2C (single isomer, unassigned) [Example 60]
class.label: f

molecule: COc1c(Cl)cccc1Nc1c(-c2ccncc2OCC(C)(C)OC)[nH]c2c1C(=O)NCC2CCO (single isomer, unassigned) [Example 14]
class.label: f

molecule: COc1c(Cl)cccc1Nc1c(-c2ccncc2OCC2COC(C)(C)CO2)[nH]c2c1C(=O)NC1(CC1)C2 (single isomer, unassigned) [Example 133]
class.label: f

###

assay.target: Ba/F3-EGFR-WT cells (Homo sapiens)
Sequence (P00533 whole entry, looked up, change not shown): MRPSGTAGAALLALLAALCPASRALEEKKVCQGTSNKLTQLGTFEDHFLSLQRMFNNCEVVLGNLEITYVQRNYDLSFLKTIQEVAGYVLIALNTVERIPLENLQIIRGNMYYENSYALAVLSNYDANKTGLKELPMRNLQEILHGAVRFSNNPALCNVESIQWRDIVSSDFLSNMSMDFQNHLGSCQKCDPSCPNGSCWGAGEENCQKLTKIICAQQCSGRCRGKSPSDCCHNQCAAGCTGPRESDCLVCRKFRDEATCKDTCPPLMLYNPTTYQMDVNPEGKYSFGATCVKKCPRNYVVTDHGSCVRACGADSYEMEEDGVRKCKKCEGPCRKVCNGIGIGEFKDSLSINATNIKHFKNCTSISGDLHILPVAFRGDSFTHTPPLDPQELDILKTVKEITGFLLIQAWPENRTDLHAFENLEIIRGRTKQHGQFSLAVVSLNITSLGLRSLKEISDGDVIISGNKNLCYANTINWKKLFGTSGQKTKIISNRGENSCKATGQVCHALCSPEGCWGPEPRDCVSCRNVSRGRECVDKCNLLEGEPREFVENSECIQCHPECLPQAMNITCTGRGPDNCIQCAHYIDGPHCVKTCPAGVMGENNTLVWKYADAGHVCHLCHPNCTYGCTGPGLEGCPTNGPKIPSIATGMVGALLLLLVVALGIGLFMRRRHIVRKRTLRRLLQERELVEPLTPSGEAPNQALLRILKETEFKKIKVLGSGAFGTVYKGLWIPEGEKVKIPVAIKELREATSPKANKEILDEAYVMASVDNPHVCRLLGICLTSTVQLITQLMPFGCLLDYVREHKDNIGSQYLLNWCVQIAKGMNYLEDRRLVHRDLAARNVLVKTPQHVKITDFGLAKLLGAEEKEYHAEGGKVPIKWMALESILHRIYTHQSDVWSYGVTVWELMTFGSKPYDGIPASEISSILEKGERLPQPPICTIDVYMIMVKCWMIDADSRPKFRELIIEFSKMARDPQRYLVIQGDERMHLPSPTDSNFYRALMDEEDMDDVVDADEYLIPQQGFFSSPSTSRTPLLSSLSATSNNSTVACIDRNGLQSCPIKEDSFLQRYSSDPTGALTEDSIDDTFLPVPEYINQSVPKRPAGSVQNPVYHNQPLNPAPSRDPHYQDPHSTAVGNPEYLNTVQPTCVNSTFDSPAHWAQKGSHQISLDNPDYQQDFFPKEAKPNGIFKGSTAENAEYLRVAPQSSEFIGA
protocol.text: Ba/F3 cell survival assay, wild type EGFR
Assay type: cell-based
run.parameters: Cell Titer-Glo, 48 h, with 10 ng/mL EGF; Table 4; read-out: BA/F3 (wild type) IC50
measured.metric: GI50

compound: COc1c(Cl)cccc1Nc1c(-c2ccncc2OC[C@@H]2CCCO2)[nH]c2c1C(=O)NCC2CCO (single isomer, unassigned) [Example 18]
endpoint.result: 362 nM
--
compound: Cc1c(Cl)cccc1Nc1c(-c2ccncc2OCC2COCCO2)[nH]c2c1C(=O)NCC2C (single isomer, unassigned) [Example 67]
endpoint.result: 1150 nM
--
compound: COc1c(Cl)cccc1Nc1c(-c2ccncc2OC[C@@H]2CCCO2)[nH]c2c1C(=O)NC(C(F)(F)F)C2 (mixture of isomers) [Example 38]
endpoint.result: 996 nM

###

assay.target: Ba/F3-EGFR-L858R cells (Homo sapiens, UniProt P00533, L858R, cells depend on it)
Sequence (P00533 whole entry L858R): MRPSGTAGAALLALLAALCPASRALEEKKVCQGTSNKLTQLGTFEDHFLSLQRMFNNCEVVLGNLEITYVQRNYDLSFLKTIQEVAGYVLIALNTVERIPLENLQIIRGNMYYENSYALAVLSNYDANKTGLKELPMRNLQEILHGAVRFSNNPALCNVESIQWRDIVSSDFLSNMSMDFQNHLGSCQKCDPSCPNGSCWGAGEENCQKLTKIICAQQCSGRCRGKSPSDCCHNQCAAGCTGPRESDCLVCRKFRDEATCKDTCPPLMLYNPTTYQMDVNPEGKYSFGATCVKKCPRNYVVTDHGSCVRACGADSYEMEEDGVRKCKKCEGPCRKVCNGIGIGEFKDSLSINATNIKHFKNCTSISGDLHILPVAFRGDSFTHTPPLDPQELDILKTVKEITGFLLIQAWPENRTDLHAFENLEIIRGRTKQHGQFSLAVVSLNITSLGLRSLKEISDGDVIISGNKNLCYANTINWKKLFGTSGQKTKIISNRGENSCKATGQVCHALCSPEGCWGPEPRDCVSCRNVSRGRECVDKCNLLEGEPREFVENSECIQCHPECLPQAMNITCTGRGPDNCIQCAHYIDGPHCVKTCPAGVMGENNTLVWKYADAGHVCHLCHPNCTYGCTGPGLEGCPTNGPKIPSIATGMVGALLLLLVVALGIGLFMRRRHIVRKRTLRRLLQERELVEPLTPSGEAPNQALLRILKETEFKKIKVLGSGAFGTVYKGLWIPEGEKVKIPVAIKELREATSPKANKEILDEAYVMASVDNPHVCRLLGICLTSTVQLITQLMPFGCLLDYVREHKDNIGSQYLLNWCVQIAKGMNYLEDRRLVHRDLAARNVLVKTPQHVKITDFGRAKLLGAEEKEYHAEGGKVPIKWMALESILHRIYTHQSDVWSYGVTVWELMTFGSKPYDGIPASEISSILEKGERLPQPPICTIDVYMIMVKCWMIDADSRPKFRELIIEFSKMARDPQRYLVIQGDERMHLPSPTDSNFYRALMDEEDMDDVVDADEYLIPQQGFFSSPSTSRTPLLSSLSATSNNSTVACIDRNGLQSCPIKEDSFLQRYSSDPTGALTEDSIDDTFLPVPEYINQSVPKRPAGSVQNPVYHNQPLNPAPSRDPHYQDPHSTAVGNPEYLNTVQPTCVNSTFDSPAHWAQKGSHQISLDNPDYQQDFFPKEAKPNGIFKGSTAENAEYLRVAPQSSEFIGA
protocol.text: Ba/F3 cell survival assay, EGFR L858R
Format: cell-based
run.parameters: classical activating and rare EGFR mutations; Table 7; read-out: BA/F3 (EGFR L858R) IC50
measured.metric: GI50 (nM)

molecule: COc1c(Cl)cccc1Nc1c(-c2ccncc2OC[C@@H]2CCCO2)[nH]c2c1C(=O)NC1(CC1)C2
measured.metric: GI50
measure.unit: nM
endpoint.result: 3.71
//
molecule: COc1c(Cl)cccc1Nc1c(-c2ccncc2OCC2COCCO2)[nH]c2c1C(=O)NCC2C (single isomer, unassigned)
measured.metric: GI50
measure.unit: nM
endpoint.result: 2.76
//
molecule: COCC(C)Oc1cnccc1-c1[nH]c2c(c1Nc1cccc(Cl)c1OC)C(=O)N[C@@H]1CCC[C@H]21 (single isomer, unassigned)
measured.metric: GI50
measure.unit: nM
endpoint.result: 1.32

###

assay.target: EGFR with insertion SVD between D770 and N771 (mutEGFR D770_N771insSVD) (Homo sapiens, UniProt P00533, DUP768-770)
Construct: amino acids R669 to A1210; made in house; host or cells: Sf9 insect cells (baculovirus)
protocol.text: Exon20-Mutant-EGFR(D770_N771insSVD) kinase assay (TR-FRET)
Assay type: biochemical
run.parameters: 2 mM ATP, Table 2
measured.metric: mutEGFR (D770_N771insSVD) kinase assay IC50 (nM)

compound: COCC(C)Oc1cnccc1-c1[nH]c2c(c1Nc1cccc(Cl)c1OC)C(=O)N[C@@H]1CCC[C@H]21 (single isomer, unassigned) [Example 51]
measure.unit: nM
endpoint.result: 0.305

compound: COc1c(Cl)cccc1Nc1c(-c2ccncc2OCC2CCCCO2)[nH]c2c1C(=O)NCC2C (single isomer, unassigned) [Example 46]
measure.unit: nM
endpoint.result: 1.17

compound: CCc1c(Cl)cccc1Nc1c(-c2ccncc2OC[C@@H]2COCCO2)[nH]c2c1C(=O)N[C@H](C)C2
measure.unit: nM
endpoint.result: 0.333

compound: COc1c(Cl)cccc1Nc1c(-c2ccncc2OC[C@@H]2CCCO2)[nH]c2c1C(=O)NCC2CC=C(F)F (single isomer, unassigned) [Example 100]
measure.unit: nM
endpoint.result: 0.35

compound: COc1c(Cl)cccc1Nc1c(-c2ccncc2OC[C@@H]2CCCO2)[nH]c2c1C(=O)NC1(CC1)C2
measure.unit: nM
endpoint.result: 0.201

compound: COc1c(Cl)cccc1Nc1c(-c2ccncc2OCC2COC(C)(C)CO2)[nH]c2c1C(=O)NC1(CCC1)C2 (stereo not shown) [Example 129]
measure.unit: nM
endpoint.result: 0.257

compound: COc1c(Cl)cccc1Nc1c(-c2ccncc2OCC(C)OC)[nH]c2c1C(=O)N[C@H](C)C2 (single isomer, unassigned) [Example 82]
measure.unit: nM
endpoint.result: 0.143

compound: COc1c(Cl)cccc1Nc1c(-c2ccncc2OCC2COCCO2)[nH]c2c1C(=O)NCC2C (single isomer, unassigned) [Example 37]
measure.unit: nM
endpoint.result: 0.318

compound: COc1c(F)cccc1Nc1c(-c2ccncc2OC[C@@H]2CCCO2)[nH]c2c1C(=O)NC(C)C2 (single isomer, unassigned) [Example 9]
measure.unit: nM
endpoint.result: 0.101

compound: COc1c(Cl)cccc1Nc1c(-c2ccncc2OCC2CCCCO2)[nH]c2c1C(=O)N[C@H](C)C2 (single isomer, unassigned) [Example 29]
measure.unit: nM
endpoint.result: 0.176

compound: C=CCOCCOc1cnccc1-c1[nH]c2c(c1Nc1cccc(Cl)c1OC)C(=O)NCC2CC=C (stereo not shown)
measure.unit: nM
endpoint.result: 0.181

compound: Cc1c(Cl)cccc1Nc1c(-c2ccncc2OCC2OCCCC2(F)F)[nH]c2c1C(=O)NCC2C (stereo not shown)
measure.unit: nM
endpoint.result: 0.19

compound: COc1c(Cl)cccc1Nc1c(-c2ccncc2OCC2COC(C)(C)CO2)[nH]c2c1C(=O)NC1(CCC1)C2 (single isomer, unassigned) [Example 131]
measure.unit: nM
endpoint.result: 0.318

###

assay.target: Ba/F3-EGFR-D770_N771insSVD cells (Homo sapiens, UniProt P00533, DUP768-770, cells depend on it)
protocol.text: Ba/F3 cell survival assay, EGFR D770_N771insSVD
Format: cell-based
run.parameters: Cell Titer-Glo, 48 h, without IL-3; Table 4; read-out: BA/F3 (insSVD) IC50

compound: COc1c(Cl)cccc1Nc1c(-c2ccncc2OC[C@@H]2CN(C)CCO2)[nH]c2c1C(=O)N[C@@H]1CCC[C@H]21
GI50 / nM: 47.6
--
compound: COc1c(Cl)cccc1Nc1c(-c2ccncc2OCC2COC(C)(C)CO2)[nH]c2c1C(=O)NC1(CCC1)C2 (stereo not shown) [Example 129]
GI50 / nM: 14
--
compound: COc1c(Cl)cccc1Nc1c(-c2ccncc2OCC2COC(C)(C)CO2)[nH]c2c1C(=O)N[C@H](C)C2 (mixture of isomers) [Example 77]
GI50 / nM: 15.3
--
compound: COCC(C)Oc1cnccc1-c1[nH]c2c(c1Nc1cccc(Cl)c1C)C(=O)N[C@H](C)C2 (stereo partly shown)
GI50 / nM: 44.7
--
compound: COc1c(Cl)cccc1Nc1c(-c2ccncc2OC[C@@H]2CCCO2)[nH]c2c1C(=O)N[C@@H](C)C2 (single isomer, unassigned)
GI50 / nM: 95.3
--
compound: COc1c(Cl)cccc1Nc1c(-c2ccncc2OC[C@@H]2COCCO2)[nH]c2c1C(=O)NC1(CC1)C2
GI50 / nM: 19.4
--
compound: COc1c(F)cccc1Nc1c(-c2ccncc2OC[C@@H]2CCCO2)[nH]c2c1C(=O)NC(C)C2 (single isomer, unassigned) [Example 9]
GI50 / nM: 104
--
compound: COc1c(Cl)cccc1Nc1c(-c2ccncc2OCC2CCCCO2)[nH]c2c1C(=O)NCC2C (single isomer, unassigned) [Example 48]
GI50 / nM: 25.7
--
compound: COc1c(Cl)cccc1Nc1c(-c2ccncc2OC[C@@H]2CN(C)CCO2)[nH]c2c1C(=O)NC1(CC1)C2
GI50 / nM: 20.4
--
compound: Cc1c(Cl)cccc1Nc1c(-c2ccncc2OC[C@@H]2COCCO2)[nH]c2c1C(=O)N[C@H](C)C2
GI50 / nM: 32.2
--
compound: C=CCOCCOc1cnccc1-c1[nH]c2c(c1Nc1cccc(Cl)c1OC)C(=O)NCC2CC=C (stereo not shown)
GI50 / nM: 28.7
--
compound: COc1c(Cl)cccc1Nc1c(-c2ccncc2OCC2COC(C)(C)CO2)[nH]c2c1C(=O)N[C@H](C)C2 (single isomer, unassigned) [Example 78]
GI50 / nM: 20.7
--
compound: COc1c(Cl)cccc1Nc1c(-c2ccncc2OCC2CCCCN2C)[nH]c2c1C(=O)N[C@H](C)C2 (single isomer, unassigned) [Example 85]
GI50 / nM: 103
